# maps each entry to its interaction data at Target Concentration 30
- assayTarget: MDM2 (Homo sapiens)
- Construct: made in house
- Sequence (Q00987 25-109): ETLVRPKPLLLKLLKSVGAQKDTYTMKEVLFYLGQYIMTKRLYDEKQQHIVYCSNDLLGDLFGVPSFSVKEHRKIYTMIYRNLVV
- testSummary: Naive Library Presenter Screening (phage, NGS), MDM2
- Type: binding
- conditionDescription: MDM2 target concentration 30 nM
Numbered stars: 1 amine (or outer) side, 2 acyl side, 3 side chain; on linkers, the order of the positions; unused ones are H or OH. Bridge positions count the residues as written; N and C are the ends. Ends that are not written are not given here. Phenylene(1,4-NHCOCH2)2 = O=C(C[*:1])Nc1ccc(NC(=O)C[*:2])cc1
measurementType: interaction data at Target Concentration 30

DPATQQCFQAAWDCQFM (linker 7-14 via Phenylene(1,4-NHCOCH2)2 (inferred)); 60
DPADNRCFQAAWDCAFW (linker 7-14 via Phenylene(1,4-NHCOCH2)2 (inferred)); 0
DPADSECFQAASDCQYW (linker 7-14 via Phenylene(1,4-NHCOCH2)2 (inferred)); 11
DPAENECFTAAWDCMFF (linker 7-14 via Phenylene(1,4-NHCOCH2)2 (inferred)); 0
DPAYASCFSAAWDCQFW (linker 7-14 via Phenylene(1,4-NHCOCH2)2 (inferred)); 0
DPANHACFQAAWDCQFF (linker 7-14 via Phenylene(1,4-NHCOCH2)2 (inferred)); 154
DPASEACFQAAWDCVSW (DPASEACFQAAWDCVSW-NH2; linker 7-14 via Phenylene(1,4-NHCOCH2)2 (inferred)); 57
DPAFDSCFSAAWDCMYW (linker 7-14 via Phenylene(1,4-NHCOCH2)2 (inferred)); 0

====

- assayTarget: MDM2 (Homo sapiens)
- Construct: made in house
- testSummary: Naive Library Presenter Screening (phage, NGS), MDM2
- Assay type: binding
- conditionDescription: MDM2 clusters (C82, C85); Blank = Media only, first column
Numbered stars: 1 amine (or outer) side, 2 acyl side, 3 side chain; on linkers, the order of the positions; unused ones are H or OH. Bridge positions count the residues as written; N and C are the ends. Ends that are not written are not given here. Phenylene(1,4-NHCOCH2)2 = O=C(C[*:1])Nc1ccc(NC(=O)C[*:2])cc1
# maps each entry to its interaction data, BLANK
measurementType: interaction data, BLANK

DPAAVQCNTAAFQCYWF (linker 7-14 via Phenylene(1,4-NHCOCH2)2 (inferred)); 0
DPAAQECFRAAWRCMQD (linker 7-14 via Phenylene(1,4-NHCOCH2)2 (inferred)); 0
DPAMSNCFMAAWECLIQ (linker 7-14 via Phenylene(1,4-NHCOCH2)2 (inferred); not fully specified (C-terminus)); 0
DPASAECFFAAWQCIAT (DPASAECFFAAWQCIAT-NH2; linker 7-14 via Phenylene(1,4-NHCOCH2)2 (inferred)); 0
DPADRDCFSAAWACVIR (linker 7-14 via Phenylene(1,4-NHCOCH2)2 (inferred)); 0
DPASADCFNAAWDCMWI (DPASADCFNAAWDCMWI-NH2; linker 7-14 via Phenylene(1,4-NHCOCH2)2 (inferred)); 0
DPAQHHCQQAAFWCQWW (DPAQHHCQQAAFWCQWW-NH2; linker 7-14 via Phenylene(1,4-NHCOCH2)2 (inferred)); 0
DPATESCEDAAFWCHWI (DPATESCEDAAFWCHWI-NH2; linker 7-14 via Phenylene(1,4-NHCOCH2)2 (inferred)); 0
DPAERNCFTAAWQCMVW (linker 7-14 via Phenylene(1,4-NHCOCH2)2 (inferred)); 0
DPAHYECTDAAFECYWF (linker 7-14 via Phenylene(1,4-NHCOCH2)2 (inferred)); 0
DPAHRQCFTAAWRCMMT (linker 7-14 via Phenylene(1,4-NHCOCH2)2 (inferred)); 0
DPAINTCQDAAFWCYWS (linker 7-14 via Phenylene(1,4-NHCOCH2)2 (inferred)); 0
DPARQDCFSAAWMCMAI (DPARQDCFSAAWMCMAI-NH2; linker 7-14 via Phenylene(1,4-NHCOCH2)2 (inferred)); 0
DPAYTQCSDAAFMCWWW (linker 7-14 via Phenylene(1,4-NHCOCH2)2 (inferred)); 0
DPAHNLCFDAAWWCHWQ (linker 7-14 via Phenylene(1,4-NHCOCH2)2 (inferred)); 0
DPALFSCDSAAFSCYWY (linker 7-14 via Phenylene(1,4-NHCOCH2)2 (inferred); not fully specified (C-terminus)); 0

====

# maps each entry to its Phage library screen NGS readout, BLANK
- assayTarget: RNF31 UBA domain (Homo sapiens, UniProt Q96EP0)
- Construct: RNF31 UBA domain protein (residues 480-639) with N-terminal Thioredoxin-TEV-6×his-yBBr-3C tags; Thioredoxin (N, cleaved yes); made in house; host or cells: E. coli BL21 (DE3) pLysS
- Sequence (Q96EP0 480-639): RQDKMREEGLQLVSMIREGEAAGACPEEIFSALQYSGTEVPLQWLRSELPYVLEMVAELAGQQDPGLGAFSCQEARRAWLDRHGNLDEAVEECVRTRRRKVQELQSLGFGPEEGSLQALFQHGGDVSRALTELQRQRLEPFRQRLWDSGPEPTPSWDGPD
- testSummary: Phage Library Screening with NGS, RNF31 UBA domain
- Format: binding
- conditionDescription: cluster C46; BLANK screen, column 4 of 5
measurementType: Phage library screen NGS readout, BLANK

DPALTNCFSAAVYCAMF; 0
DPAQLNCLSAAMYCALY; 0
DPAQMSCFSAAVYCRLF; 0
DPALQSCLSAAVYCTVS; 0
DPASASCLSAAIYCSMF; 0
DPAQRQCLSAAVWCATF; 1
DPAAQACLSAAVFCAWY; 0
DPAQRQCLSAAVFCATL; 0
DPAEQRCLSAAVYCAWH; 0
DPALRTCLSAAVFCAVA; 0
DPAALACLSAAVYCEMY; 0
DPAQMFCYSAAVYCAAF; 0
DPAASQCFSAAVYCAWI; 1
DPAHVRCTSAALWCNIF; 0
DPAVQSCLSAAVYCAFR; 0

====

# maps each entry to its interaction data at Target Concentration 100
- assayTarget: WWP2^HECT (Homo sapiens, UniProt O00308)
- Construct: GST-TEV (N, cleaved yes); made in house; host or cells: Escherichia coli BL21 (DE3)
- Sequence (O00308 492-865): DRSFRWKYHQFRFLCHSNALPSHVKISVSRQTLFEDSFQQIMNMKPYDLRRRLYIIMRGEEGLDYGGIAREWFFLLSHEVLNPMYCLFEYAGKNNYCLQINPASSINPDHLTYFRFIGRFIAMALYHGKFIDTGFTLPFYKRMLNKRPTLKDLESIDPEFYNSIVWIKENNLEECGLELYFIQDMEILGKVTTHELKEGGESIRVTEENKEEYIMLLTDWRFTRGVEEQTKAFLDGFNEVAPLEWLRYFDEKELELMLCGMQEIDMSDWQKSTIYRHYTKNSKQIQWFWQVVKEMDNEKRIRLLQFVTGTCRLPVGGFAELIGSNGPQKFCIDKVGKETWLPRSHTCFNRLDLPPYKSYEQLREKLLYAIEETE
- testSummary: Naive Library Presenter Screening (phage, NGS), WWP2^HECT
- Format: binding
- conditionDescription: WWP2 target concentration 100 nM
Numbered stars: 1 amine (or outer) side, 2 acyl side, 3 side chain; on linkers, the order of the positions; unused ones are H or OH. Bridge positions count the residues as written; N and C are the ends. Ends that are not written are not given here. Phenylene(1,4-NHCOCH2)2 = O=C(C[*:1])Nc1ccc(NC(=O)C[*:2])cc1
measurementType: interaction data at Target Concentration 100

DPALWECMTAADWCMFM (linker 7-14 via Phenylene(1,4-NHCOCH2)2; not fully specified (C-terminus)); 17
DPARVNCHAAADTCFFF (linker 7-14 via Phenylene(1,4-NHCOCH2)2); 76
DPALLHCMAAAQTCSFF (linker 7-14 via Phenylene(1,4-NHCOCH2)2; not fully specified (C-terminus)); 26
DPAIWDCLYAATNCYIN (linker 7-14 via Phenylene(1,4-NHCOCH2)2; not fully specified (C-terminus)); 0
DPATWDCQQAAHHCWVL (linker 7-14 via Phenylene(1,4-NHCOCH2)2 (inferred); not fully specified (C-terminus)); 2
DPAVWDCRYAAWDCYTN (linker 7-14 via Phenylene(1,4-NHCOCH2)2 (inferred); not fully specified (C-terminus)); 0

====

- assayTarget: MDM2 (Homo sapiens)
- Construct: made in house
- testSummary: Naive Library Presenter Screening (phage, NGS), MDM2
- Type: binding
- conditionDescription: MDM2 clusters (C82, C85); target concentration 300 nM
Numbered stars: 1 amine (or outer) side, 2 acyl side, 3 side chain; on linkers, the order of the positions; unused ones are H or OH. Bridge positions count the residues as written; N and C are the ends. Ends that are not written are not given here. Phenylene(1,4-NHCOCH2)2 = O=C(C[*:1])Nc1ccc(NC(=O)C[*:2])cc1
Label key: Condition met means interaction data at Target Concentration 300 under 30; Condition not met means interaction data at Target Concentration 300 of 30 or more.

DPASADCFNAAWDCMWI (DPASADCFNAAWDCMWI-NH2; linker 7-14 via Phenylene(1,4-NHCOCH2)2 (inferred)); Condition not met
DPADIVCQDAAFQCFWW (linker 7-14 via Phenylene(1,4-NHCOCH2)2 (inferred)); Condition not met
DPAQHHCQQAAFWCQWW (DPAQHHCQQAAFWCQWW-NH2; linker 7-14 via Phenylene(1,4-NHCOCH2)2 (inferred)); Condition met
DPAYEDCFFAAWNCMMV (linker 7-14 via Phenylene(1,4-NHCOCH2)2 (inferred)); Condition met
DPALMQCTEAAFWCYWE (linker 7-14 via Phenylene(1,4-NHCOCH2)2 (inferred); not fully specified (C-terminus)); Condition not met

====

- assayTarget: CUL1 (Homo sapiens, UniProt Q13616, L371D/V367R)
- Construct: CUL1 (Uniprot ID: Q13616, residue 15-410, V367R/L371D); GST-TEV (N, cleaved yes); made in house; host or cells: E. coli BL21 CodonPlus
- Sequence (Q13616 15-410 V367R/L371D): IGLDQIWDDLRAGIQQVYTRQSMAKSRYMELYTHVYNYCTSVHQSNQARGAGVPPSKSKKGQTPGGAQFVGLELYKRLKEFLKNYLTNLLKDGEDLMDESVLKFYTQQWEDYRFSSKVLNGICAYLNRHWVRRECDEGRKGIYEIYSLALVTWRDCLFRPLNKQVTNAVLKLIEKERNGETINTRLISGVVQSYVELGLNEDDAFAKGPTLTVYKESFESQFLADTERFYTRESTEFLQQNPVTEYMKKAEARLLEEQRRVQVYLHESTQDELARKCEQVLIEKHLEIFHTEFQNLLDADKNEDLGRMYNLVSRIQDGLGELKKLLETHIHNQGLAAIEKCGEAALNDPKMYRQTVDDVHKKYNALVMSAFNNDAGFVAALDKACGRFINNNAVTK
- testSummary: Naive Library Presenter Screening (phage, NGS), CUL1
- Type: binding
- conditionDescription: CUL1 target concentration 1000 nM, first column
Label key: Criterion met means interaction data at Target Concentration 1000 under 100; Criterion not met means interaction data at Target Concentration 1000 of 100 or more.

DPAQNDCEVAAFFCWLD; Criterion not met
DPAEQECDHAALWCIVA; Criterion not met
DPAEFVCDWAALACLVD; Criterion not met
DPAEVHCDMAALYCIIR; Criterion not met
DPAEMQCDYAAILCIVR; Criterion not met
DPAIIQCDQAALWCVVT; Criterion met
DPAEQMCDIAAVWCLAH; Criterion not met
DPAYFACDIAALMCTVH; Criterion not met
DPAQILCDLAALYCVVE; Criterion not met
DPAVMECDWAATICDIF; Criterion not met
DPAMLQCDMAALWCMVS; Criterion not met
DPAEAACDIAALMCIID; Criterion not met
DPAYDWCDVAALFCLVE; Criterion met
